Target: Abf1 (UniProt P14164)
Sequence: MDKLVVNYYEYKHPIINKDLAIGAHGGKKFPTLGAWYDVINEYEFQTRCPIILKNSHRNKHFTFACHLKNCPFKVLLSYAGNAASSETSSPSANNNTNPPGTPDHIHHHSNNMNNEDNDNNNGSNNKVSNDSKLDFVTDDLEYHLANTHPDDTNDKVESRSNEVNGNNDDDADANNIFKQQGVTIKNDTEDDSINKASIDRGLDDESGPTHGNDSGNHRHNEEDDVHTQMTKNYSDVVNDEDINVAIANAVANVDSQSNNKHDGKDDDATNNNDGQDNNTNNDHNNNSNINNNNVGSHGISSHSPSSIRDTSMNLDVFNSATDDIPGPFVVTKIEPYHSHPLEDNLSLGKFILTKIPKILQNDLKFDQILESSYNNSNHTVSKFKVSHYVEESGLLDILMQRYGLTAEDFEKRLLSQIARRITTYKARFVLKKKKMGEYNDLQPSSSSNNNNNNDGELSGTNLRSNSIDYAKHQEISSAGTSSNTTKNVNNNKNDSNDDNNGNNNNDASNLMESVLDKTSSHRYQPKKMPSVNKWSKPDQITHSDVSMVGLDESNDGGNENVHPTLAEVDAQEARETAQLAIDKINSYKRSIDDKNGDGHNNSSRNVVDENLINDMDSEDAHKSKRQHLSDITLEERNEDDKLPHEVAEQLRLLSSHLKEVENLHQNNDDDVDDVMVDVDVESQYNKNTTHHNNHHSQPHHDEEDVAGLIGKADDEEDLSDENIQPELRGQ
Assay: PBM E-score (8-mer binding enrichment) (E-score (-0.5 to 0.5)); higher = stronger / more preferred TF binding
Conditions: protein concentration: 200 nM; construct: GST-full length
The full ranking holds about 33,000 sequences; the median of “E-score (-0.5 to 0.5)” is about -0.015, and the highest 2% start at about 0.3. The entries come from a sample that favours the highest values as a whole.
Kindly return true (1) if reported PBM E-score is no lower than 0.1; return false (0) if it is lower.

Lookup: Would you say CAAATGAA shows PBM E-score at minimum 0.1?
Found: false (0)

Lookup: Check the entry CATTCGTA : does PBM E-score equal or exceed 0.1?
Found: true (1)

Lookup: Could you tell me if the measured PBM E-score of GATTGAGA reaches 0.1 or more?
Found: true (1)

Lookup: # bool: PBM E-score of AATTTCGC >= 0.1
Found: false (0)

Lookup: Textbook exercise: given the entry CATTCGCA , state whether its PBM E-score is greater than or equal to 0.1.
Found: false (0)

Lookup: Hello, I need to know if GTTTCGTA has measured PBM E-score not below 0.1. Thanks!
Found: true (1)

Lookup: Determine whether this sequence has PBM E-score no lower than 0.1: CAAATCCC
Found: false (0)

Lookup: Given GATTCGTA , state whether its PBM E-score is at least 0.1.
Found: true (1)

Lookup: PBM E-score >= 0.1 for AATTTCGA ?
Found: false (0)

Lookup: Quick check, PBM E-score >= 0.1? GACAGGAA
Found: false (0)

Lookup: Check this sequence for PBM E-score at or above 0.1: AATTTCGT
Found: true (1)

Lookup: Evaluate GGTGACTA : PBM E-score at minimum 0.1?
Found: true (1)

Lookup: Does the sequence CGAAAGGA have recorded PBM E-score that is 0.1 or more?
Found: true (1)

Lookup: Is reported PBM E-score greater than or equal to 0.1 here: AGTCGCTC
Found: false (0)

Lookup: Decide: is the reported value of PBM E-score for GAATTGGA equal to or greater than 0.1?
Found: false (0)

Lookup: Item AAATTCGC with PBM E-score of 0.1 or above?
Found: false (0)

Lookup: Can ATTTCGTC be said to have PBM E-score at or above 0.1?
Found: true (1)

Lookup: Check the entry CATTCGTC : does PBM E-score equal or exceed 0.1?
Found: true (1)

Lookup: Does PBM E-score meet or surpass 0.1 for TAATTGGA ?
Found: true (1)

Lookup: Decide: PBM E-score of AGGACCCC >= 0.1?
Found: false (0)

Lookup: Tell me whether PBM E-score is at least 0.1 here: ACTCGTCT
Found: false (0)

Lookup: Form field: PBM E-score at least 0.1? Entry: ATTCGGTC
Found: false (0)

Values from the supplement of paper PMC3334620
